# Tested on: KP-3 (Pancreatic Carcinoma)
# Assay Protocol: Bliss excess, mean over the matrix (fraction); higher = more synergy
Parameter: Bliss excess. Scope: all listed entries.
Give the value as a plain number.

[[record]]
compound = "NC1(C(=O)N[C@@H](CCO)c2ccc(Cl)cc2)CCN(c2ncnc3[nH]ccc23)CC1 [Capivasertib] + COc1nnc2ccc(N3CCC(c4ccc(OCCN5CCN(C)C(=O)[C@H]5C)cc4)CC3)nn12 [AZD5153] (first compound max 10 µM, 7x7, partner max 1 µM)"
readout_label = "Bliss excess"
obs_value = 0.0226


# next compound below
Reported Bliss excess for COc1cccc(OCCCN)c1-c1cc(Nc2cnc(C#N)cn2)n[nH]1 [Prexasertib] + O=C(c1cc(Cc2n[nH]c(=O)c3ccccc23)ccc1F)N1CCN(C(=O)C2CC2)CC1 [Olaparib] (first compound max 1 µM, 7x7, partner max 10 µM) was -0.0444

----------
Documented combination Emax across a set of molecules
# Test system: SK-GT-4 (Esophageal Adenocarcinoma)
# Assay Protocol: combination Emax (second highest fraction inhibited in the dose matrix, 72 h); higher = more inhibition; extreme values may be limits of the assay
# answer = number (no unit)

[[record]]
molecule = "C[C@@H](Nc1cc(F)cc(F)c1)c1cc(C(=O)N(C)C)cc2c(=O)cc(N3CCOCC3)oc12 [AZD8186] + CC(=O)c1c(C)c2cnc(Nc3ccc(N4CCNCC4)cn3)nc2n(C2CCCC2)c1=O [Palbociclib] (first compound max 10 µM, 7x7, partner max 10 µM)"
obs_value = 0.422


Form: molecule = CC(=O)c1c(C)c2cnc(Nc3ccc(N4CCNCC4)cn3)nc2n(C2CCCC2)c1=O [Palbociclib] + CC1(C)CCC(CN2CCN(c3ccc(C(=O)NS(=O)(=O)c4ccc(NCC5CCOCC5)c([N+](=O)[O-])c4)c(Oc4cnc5[nH]ccc5c4)c3)CC2)=C(c2ccc(Cl)cc2)C1 [Venetoclax] (first compound max 10 µM, 7x7, partner max 1 µM) ; combination Emax = 0.216

----------
# Tested on: MOG-G-CCM (Low Grade Glioma)
# Assay Protocol: combination Emax (second highest fraction inhibited in the dose matrix, 72 h); higher = more inhibition; extreme values may be limits of the assay
Entries and their combination Emax
Form rule: numeric answer, no unit written next to it.

Reference set, count: 5
[[record]]
molecule = "C=CCn1c(=O)c2cnc(Nc3ccc(N4CCN(C)CC4)cc3)nc2n1-c1cccc(C(C)(C)O)n1 [AZD1775] + CCc1c2c(nc3ccc(O)cc13)-c1cc3c(c(=O)n1C2)COC(=O)[C@]3(O)CC [SN-38] (first compound max 1 µM, partner max 0.3 µM)"
readout_label = "combination Emax"
obs_value = 0.703

[[record]]
molecule = "Cc1c2c(nn1C)CSCc1cc(n(C)n1)CSc1cc(c3ccccc3c1)OCCCc1c(C(=O)O)n(C)c3c-2c(Cl)ccc13 [AZD5991] + C[C@@H]1COCCN1C2=NC(=NC(=C2)C3(CC3)[S@](=N)(=O)C)C4=C5C=CNC5=NC=C4 [AZD6738] (first compound max 1 µM, 7x7, partner max 10 µM)"
readout_label = "combination Emax"
obs_value = 0.518

[[record]]
molecule = "O=C(c1cc(Cc2n[nH]c(=O)c3ccccc23)ccc1F)N1CCN(C(=O)C2CC2)CC1 [Olaparib] + COc1nnc2ccc(N3CCC(c4ccc(OCCN5CCN(C)C(=O)[C@H]5C)cc4)CC3)nn12 [AZD5153] (first compound max 10 µM, 7x7, partner max 1 µM)"
readout_label = "combination Emax"
obs_value = 0.51

[[record]]
molecule = "C=CCn1c(=O)c2cnc(Nc3ccc(N4CCN(C)CC4)cc3)nc2n1-c1cccc(C(C)(C)O)n1 [AZD1775] + C1CN(CCC1(C(=O)N[C@@H](CCO)C2=CC=C(C=C2)Cl)N)C3=NC=NC4=C3C=CN4 [Capivasertib] (first compound max 3 µM, partner max 3 µM)"
readout_label = "combination Emax"
obs_value = 0.748

[[record]]
molecule = "Cc1c2c(nn1C)CSCc1cc(n(C)n1)CSc1cc(c3ccccc3c1)OCCCc1c(C(=O)O)n(C)c3c-2c(Cl)ccc13 [AZD5991] + C[C@@H](Nc1cc(F)cc(F)c1)c1cc(C(=O)N(C)C)cc2c(=O)cc(N3CCOCC3)oc12 [AZD8186] (first compound max 1 µM, 7x7, partner max 3 µM)"
readout_label = "combination Emax"
obs_value = 0.447


Record CC1(C)CCC(CN2CCN(c3ccc(C(=O)NS(=O)(=O)c4ccc(NCC5CCOCC5)c([N+](=O)[O-])c4)c(Oc4cnc5[nH]ccc5c4)c3)CC2)=C(c2ccc(Cl)cc2)C1 [Venetoclax] + COc1cc(Nc2ncc3c(n2)-c2ccc(Cl)cc2C(c2c(F)cccc2OC)=NC3)ccc1C(=O)O [Alisertib] (first compound max 1 µM, 7x7, partner max 10 µM) , field combination Emax: 0.806

# combination Emax of CC1(C)CCC(CN2CCN(c3ccc(C(=O)NS(=O)(=O)c4ccc(NCC5CCOCC5)c([N+](=O)[O-])c4)c(Oc4cnc5[nH]ccc5c4)c3)CC2)=C(c2ccc(Cl)cc2)C1 [Venetoclax] + CS(=O)(=O)CCNCc1ccc(-c2ccc3ncnc(Nc4ccc(OCc5cccc(F)c5)c(Cl)c4)c3c2)o1 [Lapatinib] (first compound max 1 µM, 7x7, partner max 10 µM) = 0.166

----------
# Tested on: SNU-398 (Hepatocellular Carcinoma)
# Assay Protocol: combination Emax (second highest fraction inhibited in the dose matrix, 72 h); higher = more inhibition; extreme values may be limits of the assay
Readout Label: combination Emax

Consider the following illustrative entries.
[[record]]
compound = "CC1(C)CCC(CN2CCN(c3ccc(C(=O)NS(=O)(=O)c4ccc(NCC5CCOCC5)c([N+](=O)[O-])c4)c(Oc4cnc5[nH]ccc5c4)c3)CC2)=C(c2ccc(Cl)cc2)C1 [Venetoclax] + C[C@@H](Nc1cc(F)cc(F)c1)c1cc(C(=O)N(C)C)cc2c(=O)cc(N3CCOCC3)oc12 [AZD8186] (first compound max 1 µM, 7x7, partner max 3 µM)"
target_or_test_system = "SNU-398 (Hepatocellular Carcinoma)"
obs_value = 0.166

[[record]]
compound = "CC1(C)CCC(CN2CCN(c3ccc(C(=O)NS(=O)(=O)c4ccc(NCC5CCOCC5)c([N+](=O)[O-])c4)c(Oc4cnc5[nH]ccc5c4)c3)CC2)=C(c2ccc(Cl)cc2)C1 [Venetoclax] + C=CCn1c(=O)c2cnc(Nc3ccc(N4CCN(C)CC4)cc3)nc2n1-c1cccc(C(C)(C)O)n1 [AZD1775] (first compound max 1 µM, partner max 1 µM)"
target_or_test_system = "SNU-398 (Hepatocellular Carcinoma)"
obs_value = 0.711


Please find the next compound below.
Record NC1(C(=O)N[C@@H](CCO)c2ccc(Cl)cc2)CCN(c2ncnc3[nH]ccc23)CC1 [Capivasertib] + Cn1cnc2c(F)c(Nc3ccc(Br)cc3Cl)c(C(=O)NOCCO)cc21 [Selumetinib] (first compound max 10 µM, 7x7, partner max 10 µM) . Reported combination Emax: 0.472

----------
# System: SK-GT-4 (Esophageal Adenocarcinoma)
# Assay Protocol: combination Emax (second highest fraction inhibited in the dose matrix, 72 h); higher = more inhibition; extreme values may be limits of the assay
Readout Label: combination Emax
When you answer, write just the number.

[[record]]
compound = "CC(=O)c1c(C)c2cnc(Nc3ccc(N4CCNCC4)cn3)nc2n(C2CCCC2)c1=O [Palbociclib] + Cc1c2c(nn1C)CSCc1cc(n(C)n1)CSc1cc(c3ccccc3c1)OCCCc1c(C(=O)O)n(C)c3c-2c(Cl)ccc13 [AZD5991] (first compound max 10 µM, 7x7, partner max 1 µM)"
readout_label = "combination Emax"
obs_value = 0.305


Now turn to the next compound.
For record C[C@@H](Nc1cc(F)cc(F)c1)c1cc(C(=O)N(C)C)cc2c(=O)cc(N3CCOCC3)oc12 [AZD8186] + C1CN(CCC1(C(=O)N[C@@H](CCO)C2=CC=C(C=C2)Cl)N)C3=NC=NC4=C3C=CN4 [AZD5363] (first compound max 10 µM, 7x7, partner max 10 µM) the listed combination Emax is 0.457

----------
# System: KYSE-270 (Esophageal Squamous Cell Carcinoma)
# Assay Protocol: Bliss excess, mean over the matrix (fraction); higher = more synergy
Outcome: 1.0 for Bliss excess of at least 0.01; 0.0 for anything lower.

[[record]]
compound = "CN(CCO)CC[C@H](CSc1ccccc1)Nc1ccc(S(=O)(=O)NC(=O)c2ccc(N3CCC([C@@H](O)c4ccccc4-c4ccc(Cl)cc4)CC3)cc2)cc1S(=O)(=O)C(F)(F)F [AZD4320] + C=CCn1c(=O)c2cnc(Nc3ccc(N4CCN(C)CC4)cc3)nc2n1-c1cccc(C(C)(C)O)n1 [AZD1775] (first compound max 1 µM, partner max 1 µM)"
target_or_test_system = "KYSE-270 (Esophageal Squamous Cell Carcinoma)"
cat = 1.0

[[record]]
compound = "NC1(C(=O)N[C@@H](CCO)c2ccc(Cl)cc2)CCN(c2ncnc3[nH]ccc23)CC1 [Capivasertib] + CCN(CCO)CCCOc1ccc2c(Nc3cc(CC(=O)Nc4cccc(F)c4)[nH]n3)ncnc2c1 [AZD2811] (first compound max 10 µM, 7x7, partner max 1 µM)"
target_or_test_system = "KYSE-270 (Esophageal Squamous Cell Carcinoma)"
cat = 0.0

[[record]]
compound = "N#Cc1cnc(Nc2cc(NC[C@H]3CNCCO3)c(C(F)(F)F)cn2)cn1 [SRA737] + CCc1c2c(nc3ccc(O)cc13)-c1cc3c(c(=O)n1C2)COC(=O)[C@]3(O)CC [SN-38] (first compound max 10 µM, 7x7, partner max 0.3 µM)"
target_or_test_system = "KYSE-270 (Esophageal Squamous Cell Carcinoma)"
cat = 0.0


Does Bliss excess meet or surpass 0.01 for COc1cccc(OCCCN)c1-c1cc(Nc2cnc(C#N)cn2)n[nH]1 [Prexasertib] + O=C(c1cc(Cc2n[nH]c(=O)c3ccccc23)ccc1F)N1CCN(C(=O)C2CC2)CC1 [Olaparib] (first compound max 1 µM, 7x7, partner max 10 µM) ? 0.0

Hello, I need to know if Cc1c2c(nn1C)CSCc1cc(n(C)n1)CSc1cc(c3ccccc3c1)OCCCc1c(C(=O)O)n(C)c3c-2c(Cl)ccc13 [AZD5991] + CS(=O)(=O)CCNCc1ccc(-c2ccc3ncnc(Nc4ccc(OCc5cccc(F)c5)c(Cl)c4)c3c2)o1 [Lapatinib] (first compound max 1 µM, 7x7, partner max 10 µM) has measured Bliss excess not below 0.01. Thanks! 1.0

Data provenance: the supplement of paper PMC11061612
